Every entry's value here was drawn from PubChem BioAssay (NCI).

- System: COLO 205 colon
- assay.explanation: NCI tumour cell line growth inhibition, 48 h
measured.metric: TGI

Previously resolved entries follow.
Cc1cnc(Nc2ccc(N3CCN(C)CC3)cc2)nc1Nc1ccc(Cl)c(NS(=O)(=O)C(C)(C)C)c1	543 nM
COc1cccc(C2C3=C(COC3=O)N(CCO)c3cc4c(cc32)OCO4)c1 (stereo not given)	854 nM
COC1OC(C)C2OC(C)(C)OC2C1OC(C)=O (stereo not given)	> 100000 nM

Which TGI is reported with COLO 205 colon for this entry: C[C@]12CCNC(=O)C=C1CC[C@@H]1C2CC[C@@]2(C)C1CC[C@@H]2OC(=O)COc1ccc(N(CCCl)CCCl)cc1 (stereo not given in full) ?
23900 nM

Which TGI is reported with COLO 205 colon for this entry: COc1ccc(C(=O)N/N=C/c2c(C)n(C)n(-c3ccccc3)c2=O)cc1 ?
> 100000 nM

Which TGI is reported with COLO 205 colon for this entry: COc1c2c(cc3c1C1(O)Cc4ccc5c(c4C[N+]1(C)CC3)OCO5)OCO2 (stereo not given) ?
> 100000 nM

Which TGI is reported with COLO 205 colon for this entry: Cc1ccc(-c2nc([P+](c3ccccc3)(c3ccccc3)c3ccccc3)c(Nc3ccccc3)o2)cc1 ?
2780 nM

Which TGI is reported with COLO 205 colon for this entry: NC(=Nc1ccc(N)cc1)C(N)=Nc1ccc(N)cc1 ?
> 100000 nM

Which TGI is reported with COLO 205 colon for this entry: O=c1[nH]c(=O)n(C2OC(CO)C(O)C2O)cc1OCC(F)(F)F (stereo not given) ?
> 100000 nM

Which TGI is reported with COLO 205 colon for this entry: N#CN1CC[C@H](C(=O)Nc2cc3cc(C(N)=O)ccc3cn2)C1 ?
268 nM

----------
- Tested on: UACC-257 melanoma
- assay.explanation: NCI tumour cell line growth inhibition, 48 h
Where a SMILES comes first, the peptide text is derived from it. The star is where a group is joined. Cbz = O=C(OCc1ccccc1)*; NHNH2 = NN*
TGI reference

NC(=Nc1ccc(N)cc1)C(N)=Nc1ccc(N)cc1	> 100 µM
CC(C)(C)C1=CC(=C2C=Cc3ccccc3O2)C=C(C(C)(C)C)C1=O	13.2 µM
COc1ccccc1NS(=O)(=O)c1ccc2oc(SC(C)C)nc2c1	19.1 µM
COc1cc(-n2ccnc2)cc(OC)c1OC	> 100 µM
Cc1c(N2C(=O)/C(=C/c3ccc(N(CCC#N)CCC#N)cc3)N=C2c2ccccc2)c(=O)n(-c2ccccc2)n1C	> 100 µM

For the molecule shown here, Cc1cc(=O)[nH]c(CNC(=O)c2cccc(C(=O)NCc3cc(=O)[nH]c(C)n3)c2)n1 , give the reported TGI.
> 100 µM

For the molecule shown here, CCOC(=O)CCC(NC(=O)OCc1ccccc1)C(=O)NC(CCC(=O)OCC)C(=O)NN (stereo unspecified) (Cbz-Glu(OEt)-Glu(OEt)-NHNH2; configuration not given here) , give the reported TGI.
> 100 µM

For the molecule shown here, Cc1c(C(N)=O)sc2c1c(=O)n(Cc1ccccc1)c1nnc(-c3ccc(Br)cc3)n21 , give the reported TGI.
11.8 µM

----------
- System: RPMI-8226 leukemia
- assay.explanation: NCI tumour cell line growth inhibition, 48 h
TGI reference

Previously resolved entries follow.
CCOC(=O)c1cc(C2CCN(c3ccccc3)C2=O)c(C(=O)/C=C(/C)N)[nH]1 (stereo not given)	> 100 µM
NCCCCCCNCc1cccc2ccccc12	> 100 µM

Which TGI is reported with RPMI-8226 leukemia for this entry: C=CCN(c1cc(OC)c2[nH]c(C(=O)OCC)c(C)c2c1[N+](=O)[O-])S(C)(=O)=O ?
32.8 µM

Which TGI is reported with RPMI-8226 leukemia for this entry: CCOC(=O)/C(=C/c1ccc(N(CCC#N)CCC#N)cc1C)NC(=O)/C=C/c1ccccc1 ?
> 100 µM

----------
- Tested on: SK-MEL-5 melanoma
- assay.explanation: NCI tumour cell line growth inhibition, 48 h
measured.metric: GI50

Previously resolved entries follow.
COc1ccc(N(/C=C/C(=O)C(F)(F)F)CC(=O)c2ccc(Cl)cc2)cc1	15 µM
COc1cc(-n2ccnc2)cc(OC)c1OC	59 µM

Please find the next molecule below.
Which GI50 is reported with SK-MEL-5 melanoma for this entry: Nc1nc(=O)n([C@@H]2CS[C@H](CO)O2)cc1F ?
> 100 µM

----------
- Test system: BT-549 breast
- assay.explanation: NCI tumour cell line growth inhibition, 48 h
TGI reference
Respond with the bare value in µM.

Cc1cnc(Nc2ccc(N3CCN(C)CC3)cc2)nc1Nc1ccc(Cl)c(NS(=O)(=O)C(C)(C)C)c1	2.59
O=[N+]([O-])/C(C(Cl)=C(Cl)Cl)=C(\N1CCCCC1)n1nnc2ccccc21	49.4
COP(=O)(OC)/C(=C/c1cn(C(c2ccccc2)(c2ccccc2)c2ccccc2)cn1)NC=O	30.6
CC(=O)c1cc(C(=O)c2ccc3c(c2)Sc2ccccc2N3)c2c(C)cccn12	23.8

For the compound shown here, C=C(C)C(=O)O[C@@H]1C/C(C)=C\[C@H](OC(C)=O)C[C@](C)(O)/C=C2/OC(=O)C(COC(C)=O)=C21 , give the reported TGI.
3.91

----------
- Tested on: MDA-MB-231 breast
- assay.explanation: NCI tumour cell line growth inhibition, 48 h
measured.metric: GI50

For the molecule shown here, COc1ccccc1NS(=O)(=O)c1ccc2oc(SC(C)C)nc2c1 , give the reported GI50.
12.4 µM

For the molecule shown here, CCOC(=O)/C=C/C(=O)[C@H](CC(C)C)NC(=O)[C@H](Cc1ccccc1)NC(=O)OCc1ccccc1 , give the reported GI50.
2.92 µM

For the molecule shown here, CC1=C[C@H]2C[C@H](C)[C@H]3CC[C@H](C)[C@]4(C1)C(=O)C(O)=C(C)C(=O)[C@@]324 , give the reported GI50.
20.8 µM

For the molecule shown here, O=C(NCCNc1nccc(-c2c(-c3cccc(O)c3)nc3sccn23)n1)c1ccccc1 , give the reported GI50.
7.05 µM

For the molecule shown here, NC(=S)N=Nc1c(O)c2ccccc2c2ccccc12 , give the reported GI50.
16.1 µM

----------
- Tested on: COLO 205 colon
- assay.explanation: NCI tumour cell line growth inhibition, 48 h
measured.metric: TGI (µM)
Respond with the bare value in µM.

COc1cc2c(=O)n(CCN(C)C)c3c4cc5c(cc4ccc3c2cc1OC)OCO5	0.922
C=CCc1cc(C(Cc2ccccc2)NC(C)C)cc(OCc2ccccc2)c1OCc1ccccc1 (stereo not given)	31.3

For the compound shown here, CC1=C(C)C2(O)C(=C(C)C1=O)/C(=C(/O)c1ccccc1)c1nc3ccccc3n12 (stereo not given) , give the reported TGI.
31.3

For the compound shown here, c1ccc2c(c1)ccn1ccc3c4ccccc4nc-3c21 , give the reported TGI.
1.13

For the compound shown here, CC12CCC3c4cc(Br)c(O)c(Br)c4CCC3C1CCC2O (stereo not given) , give the reported TGI.
70.1

For the compound shown here, CN(C)CCNC(=O)c1cccc2ccc(-c3ccc(-c4ccccc4)cc3)nc12 , give the reported TGI.
3

----------
- System: SR leukemia
- assay.explanation: NCI tumour cell line growth inhibition, 48 h
measured.metric: TGI

Previously resolved entries follow.
CCOC(=O)CN1CC(C2=C(O)CN(CC(=O)OCC)C2=O)=CC1=O	> 100 µM
CN(C)CCNC(=O)c1cccc2ccc(-c3ccc(-c4ccccc4)cc3)nc12	4.64 µM
CC(=O)C(=[N+]=[N-])C(=O)N(C)CCC#N	> 10 µM
CC(C)(C)OC(=O)CN1CCN(CC(=O)N2CCN(C(=O)OCc3ccccc3)CC2)CCN(CC(=O)OC(C)(C)C)CCN(CC(=O)N2CCN(C(=O)OCc3ccccc3)CC2)CC1	1.75 µM
C(=Nc1ccc(-c2nc3ccccc3[nH]2)cc1)c1ccco1	> 100 µM

For the molecule shown here, CC1NC(=O)C2=C1C(N)=NC(=O)C2 (stereo not drawn) , give the reported TGI.
> 100 µM

For the molecule shown here, COc1cc2ccc1OCc1cccc(n1)COc1ccc(cc1OC)C=NCCNCCNCCN=C2 , give the reported TGI.
> 100 µM

For the molecule shown here, O=c1[nH]c(=O)n(C2OC(CO)C(O)C2O)cc1OCC(F)(F)F (stereo not drawn) , give the reported TGI.
> 100 µM

For the molecule shown here, C=CCOc1ccccc1C1(O)c2ccccc2C2=NCCCN21 (stereo not drawn) , give the reported TGI.
> 100 µM

----------
- Tested on: HCC-2998 colon
- assay.explanation: NCI tumour cell line growth inhibition, 48 h
measured.metric: TGI (µM)
Respond with the bare value in µM.

Previously resolved entries follow.
CN(C)CCNC(=O)c1cccc2ccc(-c3ccc(-c4ccccc4)cc3)nc12	3.3
O=S(=O)(/N=C(\NO)Nc1ccc(Cl)cc1)c1ccccc1	22

Please find the next molecule below.
For the molecule shown here, CCOc1ccc(O)cc1[P+](c1ccccc1)(c1ccccc1)c1ccccc1 , give the reported TGI.
13.4
